# Target Or System: Hap1 (UniProt P0CE41)
# Sequence (P0CE41 whole entry): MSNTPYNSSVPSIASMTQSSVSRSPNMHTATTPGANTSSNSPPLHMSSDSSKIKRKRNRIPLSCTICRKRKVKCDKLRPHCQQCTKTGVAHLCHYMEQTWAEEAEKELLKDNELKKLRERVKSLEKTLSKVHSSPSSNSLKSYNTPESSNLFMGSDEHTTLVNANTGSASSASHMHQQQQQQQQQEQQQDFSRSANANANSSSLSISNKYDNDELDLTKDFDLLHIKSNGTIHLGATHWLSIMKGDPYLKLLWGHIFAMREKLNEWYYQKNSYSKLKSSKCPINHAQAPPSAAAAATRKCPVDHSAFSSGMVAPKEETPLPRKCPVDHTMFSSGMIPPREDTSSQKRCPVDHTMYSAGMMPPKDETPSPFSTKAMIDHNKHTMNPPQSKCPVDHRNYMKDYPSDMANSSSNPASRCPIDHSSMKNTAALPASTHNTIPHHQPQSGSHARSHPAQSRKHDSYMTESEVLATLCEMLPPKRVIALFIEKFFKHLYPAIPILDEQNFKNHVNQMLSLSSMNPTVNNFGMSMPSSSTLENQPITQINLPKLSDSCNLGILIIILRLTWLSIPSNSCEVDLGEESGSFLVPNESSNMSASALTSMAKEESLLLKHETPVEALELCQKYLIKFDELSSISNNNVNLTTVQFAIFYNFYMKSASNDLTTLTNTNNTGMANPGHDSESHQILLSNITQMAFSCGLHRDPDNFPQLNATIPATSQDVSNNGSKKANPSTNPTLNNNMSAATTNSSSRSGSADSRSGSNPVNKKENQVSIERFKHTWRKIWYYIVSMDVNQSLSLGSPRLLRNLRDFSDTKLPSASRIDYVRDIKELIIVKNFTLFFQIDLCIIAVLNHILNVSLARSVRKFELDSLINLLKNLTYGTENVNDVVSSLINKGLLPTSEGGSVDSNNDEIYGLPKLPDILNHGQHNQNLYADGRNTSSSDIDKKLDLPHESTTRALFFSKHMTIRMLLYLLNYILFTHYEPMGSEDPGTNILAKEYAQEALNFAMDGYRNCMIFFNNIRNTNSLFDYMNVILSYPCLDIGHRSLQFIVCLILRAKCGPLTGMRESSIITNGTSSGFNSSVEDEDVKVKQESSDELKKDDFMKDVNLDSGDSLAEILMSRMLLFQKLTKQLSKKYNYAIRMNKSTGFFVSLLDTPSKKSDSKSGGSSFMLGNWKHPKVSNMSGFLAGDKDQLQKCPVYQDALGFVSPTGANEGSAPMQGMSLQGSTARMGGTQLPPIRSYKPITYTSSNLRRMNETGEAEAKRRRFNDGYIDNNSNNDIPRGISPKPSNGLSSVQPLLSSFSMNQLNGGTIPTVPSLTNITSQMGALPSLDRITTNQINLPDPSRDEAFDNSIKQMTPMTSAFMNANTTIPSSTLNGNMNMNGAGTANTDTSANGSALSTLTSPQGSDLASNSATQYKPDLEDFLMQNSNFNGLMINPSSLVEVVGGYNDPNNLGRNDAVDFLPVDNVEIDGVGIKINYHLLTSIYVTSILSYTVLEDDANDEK
# Assay Name: PBM E-score (8-mer binding enrichment) (E-score (-0.5 to 0.5)); higher = stronger / more preferred TF binding
# Condition Details: protein concentration: 200 nM; construct: GST-DNA-binding domain
Over roughly 33,000 sequences, “E-score (-0.5 to 0.5)” has its median near -0.053; the highest 2% begin near 0.37. Only a selection was taken, and the highest values are over-represented in it overall.
Measure Name: PBM E-score
Answer using only a numeral; do not append any unit.

Exercise: What PBM E-score value was documented for this sequence, `ACGTACAC` ?
Key: -0.181

Exercise: What PBM E-score value was documented for this sequence, `ACCGGAGA` ?
Key: 0.43

Exercise: What PBM E-score value was documented for this sequence, `AAGTCCTG` ?
Key: -0.0784

Exercise: What PBM E-score value was documented for this sequence, `GGTAGTTA` ?
Key: 0.0824

Exercise: What PBM E-score value was documented for this sequence, `AGCGGAGG` ?
Key: 0.158

Exercise: What PBM E-score value was documented for this sequence, `CAGTCCGC` ?
Key: 0.0912

Exercise: What PBM E-score value was documented for this sequence, `CCCGGAGG` ?
Key: 0.285

Exercise: What PBM E-score value was documented for this sequence, `AGCGGAGA` ?
Key: 0.276

Exercise: What PBM E-score value was documented for this sequence, `TCTCAGCA` ?
Key: -0.326

Exercise: What PBM E-score value was documented for this sequence, `ACTGCGTG` ?
Key: -0.275

Exercise: What PBM E-score value was documented for this sequence, `AAGTCCAT` ?
Key: -0.00211

Exercise: What PBM E-score value was documented for this sequence, `TCCGGAGA` ?
Key: 0.442

Exercise: What PBM E-score value was documented for this sequence, `AACGGAGA` ?
Key: 0.357

Exercise: What PBM E-score value was documented for this sequence, `TACGGAGA` ?
Key: 0.326

Exercise: What PBM E-score value was documented for this sequence, `CCTGGTCC` ?
Key: 0.138

Exercise: What PBM E-score value was documented for this sequence, `CAGTCCGG` ?
Key: 0.364

Exercise: What PBM E-score value was documented for this sequence, `AAGTCCGG` ?
Key: 0.47

Exercise: What PBM E-score value was documented for this sequence, `CGAGGCCA` ?
Key: 0.022

Exercise: What PBM E-score value was documented for this sequence, `AAGTCCGT` ?
Key: 0.417

Exercise: What PBM E-score value was documented for this sequence, `GCGAACGA` ?
Key: 0.00245

Exercise: What PBM E-score value was documented for this sequence, `GAGTCCGC` ?
Key: 0.249

Exercise: What PBM E-score value was documented for this sequence, `CCGATGTC` ?
Key: 0.295

====

# Target Or System: Hap1 (UniProt P0CE41)
# Assay Name: PBM E-score (8-mer binding enrichment) (E-score (-0.5 to 0.5)); higher = stronger / more preferred TF binding
# Condition Details: protein concentration: 200 nM; construct: GST-DNA-binding domain
In all, about 33,000 sequences were measured (“E-score (-0.5 to 0.5)”: median about -0.053, highest 2% from about 0.37 on). Only a selection was taken, and the highest values are over-represented in it overall.
Exercise: state measured PBM E-score for each of the sequences provided.
Answer using only a numeral; do not append any unit.

Exercise: What PBM E-score value was documented for this sequence, `CCGAGAAA` ?
Key: 0.4

Exercise: What PBM E-score value was documented for this sequence, `CTCTCATC` ?
Key: -0.159

Exercise: What PBM E-score value was documented for this sequence, `AGGAGATA` ?
Key: 0.253

Exercise: What PBM E-score value was documented for this sequence, `ATCATTCG` ?
Key: 0.0233

Exercise: What PBM E-score value was documented for this sequence, `AGGAGATC` ?
Key: -0.098

Exercise: What PBM E-score value was documented for this sequence, `AGCCGGCA` ?
Key: 0.334

Exercise: What PBM E-score value was documented for this sequence, `CGCCGGGC` ?
Key: 0.332

Exercise: What PBM E-score value was documented for this sequence, `GGGAGAAA` ?
Key: 0.0441

Exercise: What PBM E-score value was documented for this sequence, `ATACCCTG` ?
Key: -0.0146

Exercise: What PBM E-score value was documented for this sequence, `GCGAGAAA` ?
Key: 0.116

Exercise: What PBM E-score value was documented for this sequence, `AGCAATAC` ?
Key: -0.0164

Exercise: What PBM E-score value was documented for this sequence, `CGGAGAAA` ?
Key: 0.413

Exercise: What PBM E-score value was documented for this sequence, `AGGAGAAG` ?
Key: -0.149

Exercise: What PBM E-score value was documented for this sequence, `CGGAGATC` ?
Key: 0.411

Exercise: What PBM E-score value was documented for this sequence, `AGCCGGCT` ?
Key: 0.25

Exercise: What PBM E-score value was documented for this sequence, `CGGAGAAC` ?
Key: 0.36

Exercise: What PBM E-score value was documented for this sequence, `CGCCGGAC` ?
Key: 0.409

Exercise: What PBM E-score value was documented for this sequence, `AGCCGGTG` ?
Key: 0.326

Exercise: What PBM E-score value was documented for this sequence, `AGCCGGCC` ?
Key: 0.354

Exercise: What PBM E-score value was documented for this sequence, `AGCCGGAC` ?
Key: 0.409

Exercise: What PBM E-score value was documented for this sequence, `TGGAGAAA` ?
Key: -0.0481

Exercise: What PBM E-score value was documented for this sequence, `AGCCGGGC` ?
Key: 0.173
